Field pKi: reported value for Prothrombin (Bos taurus, UniProt P00735); entries drawn from several documents.
pKi: −log10 of the molar value.
value.kind: pKi

smiles.text | subject.of.test | pKi
N=C(N)c1ccc(CNC(=O)CNC(=O)[C@@H](CCc2ccccc2)NS(=O)(=O)Cc2ccc([N+](=O)[O-])cc2)cc1 | Prothrombin (Bos taurus, UniProt P00735) | 6.15

(P) CC1(C)C(=O)Nc2ccc(cc2)C[C@@H](C(=O)NCc2ccc(C(=N)N)cc2)NC(=O)[C@H](NS(=O)(=O)Cc2ccccc2)Cc2ccc(cc2)NC(=O)C(C)(C)N2CCN1CC2
(Q) N=C(N)c1ccc(CNC(=O)CNC(=O)[C@@H](C/C=C/c2ccccc2)NS(=O)(=O)Cc2ccccc2)cc1
So which one has the bigger pKi here, P or Q ? Reply with the label of the item you choose.
P

---

Field pKi: reported value for Prothrombin (Bos taurus); entries drawn from several documents.
pKi: −log10 of the molar value.
value.kind: pKi

compound | subject.of.test | value.kind | result.number
C[C@@H](O)[C@H](NC(=O)[C@@H](COC(C)(C)C)NS(=O)(=O)Cc1ccccc1)C(=O)NCc1ccc(C(=N)N)cc1 | Prothrombin (Bos taurus) | pKi | 7.36

(1) CC(C)(C)OC[C@@H](NS(=O)(=O)Cc1ccc(CC(=O)O)cc1)C(=O)N1CCC[C@H]1C(=O)NCc1ccc(C(=N)N)cc1
(2) N=C(N)c1ccc(CNC(=O)CNC(=O)C(CCc2ccncc2)NS(=O)(=O)Cc2ccc([N+](=O)[O-])cc2)cc1 (stereo not drawn)
(3) N=C(N)c1ccc(CNC(=O)[C@@H]2Cc3cccc(c3)CNC(=O)Cc3ccccc3CC(=O)NCc3cccc(c3)C[C@@H](NS(=O)(=O)Cc3ccccc3)C(=O)N2)cc1
(4) CC(C)(C)OC[C@@H](NS(=O)(=O)Cc1ccccc1)C(=O)N[C@@H](COCc1ccccc1)C(=O)NCc1ccc(C(=N)N)cc1
(5) Nc1cccc(CC(NS(=O)(=O)c2ccc3ccccc3c2)C(=O)N2CCCCC2C(=O)O)c1 (racemic)
Hey, can you sort those compounds up there by pKi, smallest first? Sort the labels as requested; that list is your answer.
5, 2, 3, 4, 1

---

Field Ki: reported value for Prothrombin (Bos taurus); entries drawn from several documents.
value.kind: Ki (µM)

molecule | unit.spec | Ki
N=C(N)c1ccc(CNC(=O)C[C@H](CO)NC(=O)[C@@H](CO)NS(=O)(=O)Cc2ccccc2)cc1 | µM | 8.5

(a) COC(=O)c1ccc(CS(=O)(=O)NC(CCc2ccncc2)C(=O)NCC(=O)NCc2ccc(C(=N)N)cc2)cc1 (stereo not drawn)
(b) N=C(N)c1ccc(CNC(=O)[C@@H]2Cc3cn(nn3)Cc3cccc(n3)Cn3cc(nn3)C[C@@H](NS(=O)(=O)Cc3ccccc3)C(=O)N2)cc1
Given the listed items, does a or b have the lesser reported Ki? Reply with the label of the item you choose.
b

---

pKi: −log10 of the molar value.
Field pKi: reported value for Prothrombin (Bos taurus); entries drawn from several documents.
value.kind: pKi

molecule | pKi
N=C(N)c1ccc(CNC(=O)C2CCCN2C(=O)C(CO)NS(=O)(=O)Cc2ccccc2)cc1 (centres unmarked) | 7.92
N=C(N)c1ccc(CNC(=O)[C@H](CCC(=O)O)NC(=O)[C@@H](CCc2ccc(O)cc2)NS(=O)(=O)Cc2ccc(N)cc2)cc1 | 4.11
N=C(N)c1ccc(CNC(=O)CNC(=O)[C@@H](CCc2ccccc2)NS(=O)(=O)Cc2ccc(CC(=O)O)cc2)cc1 | 4.85
N=C(N)c1cccc(CC(NC(=O)CNS(=O)(=O)c2ccc3ccccc3c2)C(=O)N2CCC(C(=O)O)CC2)c1 (racemic) | 4.34
CC(C)(C)OC[C@@H](NS(=O)(=O)Cc1ccccc1)C(=O)N[C@@H](CCC(N)=O)C(=O)NCc1ccc(C(=N)N)cc1 | 7.68
CC(C)(C)OC[C@@H](NS(=O)(=O)Cc1ccccc1)C(=O)N[C@@H](Cc1ccccc1)C(=O)NCc1ccc(C(=N)N)cc1 | 6.80

(a) N=C(N)c1ccc(CNC(=O)[C@H](CCCCNC(=O)OCc2ccccc2)NC(=O)[C@@H](CC2CCCCC2)NS(=O)(=O)Cc2ccccc2)cc1
(b) N=C(N)c1ccc(CNC(=O)[C@H](CN)NC(=O)[C@@H](CO)NS(=O)(=O)Cc2ccccc2)cc1
(c) N=C(N)c1ccc(CNC(=O)CNC(=O)[C@@H](CCCc2ccccc2)NS(=O)(=O)Cc2ccccc2)cc1
(d) N=C(N)c1ccc(CNC(=O)CNC(=O)C(CCc2ccncc2)NS(=O)(=O)Cc2ccncc2)cc1 (racemic)
(e) N=C(N)c1ccc(CNC(=O)[C@H](CCC(=O)O)NC(=O)[C@@H](CCc2ccc(O)cc2)NS(=O)(=O)Cc2ccccc2)cc1
# rank_down: sort by pKi, max first Sort the labels as requested; that list is your answer.
a, c, b, d, e
(a: 7.82, c: 6.68, b: 6.19, d: 5.49, e: 4.72)

---

pKi: −log10 of the molar value.
Field pKi: reported value for Prothrombin (Bos taurus, UniProt P00735); entries drawn from several documents.
value.kind: pKi

Examples with their reported pKi follow.
compound | pKi
NCc1cccc(CC(NS(=O)(=O)c2ccc3ccccc3c2)C(=O)N2CCCCC2C(=O)O)c1 (racemic) | 4.30
COC(=O)c1ccc(CS(=O)(=O)N[C@H](Cc2cccc(C(=N)N)c2)C(=O)NCC(=O)NCc2ccc(C(=N)N)cc2)cc1 | 6.28
N=C(N)c1ccc(CNC(=O)[C@H](COCc2ccccc2)NC(=O)[C@@H](CO)NS(=O)(=O)Cc2ccccc2)cc1 | 6.32
N=C(N)c1ccc(CNC(=O)[C@H](CCCCNC(=O)CCCC(=O)O)NC(=O)[C@@H](CO)NS(=O)(=O)Cc2ccccc2)cc1 | 5.55
CC1CCN(C(=O)C(Cc2cccc(CN)c2)NS(=O)(=O)c2ccc3ccccc3c2)CC1 (racemic) | 5.72

(1) N=C(N)c1ccc(CNC(=O)[C@H](CCC(=O)O)NC(=O)[C@@H](CCc2ccccc2)NS(=O)(=O)Cc2ccccc2)cc1
(2) CC(C)(C)OC(=O)CCC[C@H](NC(=O)[C@@H](CCc1ccccc1)NS(=O)(=O)Cc1ccccc1)C(=O)NCc1ccc(C(=N)N)cc1
(3) N=C(N)c1ccc(CNC(=O)CNC(=O)[C@@H](/C=C/c2ccccc2)NS(=O)(=O)Cc2ccccc2)cc1
(4) CC(C)(C)OC[C@@H](NS(=O)(=O)Cc1ccccc1)C(=O)N[C@@H](CCCCN)C(=O)NCc1ccc(C(=N)N)cc1
(5) Nc1ccc(CNC(=O)CNC(=O)C(CCc2ccncc2)NS(=O)(=O)Cc2ccccc2)cn1 (centres unmarked)
Hey, can you sort those compounds up there by pKi, smallest first? Sort the labels as requested; that list is your answer.
5, 1, 3, 2, 4
(5: 4.00, 1: 4.82, 3: 5.96, 2: 6.34, 4: 7.26)

---

Field pKi: reported value for Prothrombin (Bos taurus, UniProt P00735); entries drawn from several documents.
pKi: −log10 of the molar value.
value.kind: pKi

Examples with their reported pKi follow.
compound | pKi
CC1CCCCN1C(=O)C(Cc1cccc(C(=N)N)c1)NS(=O)(=O)c1ccc2ccccc2c1 (racemic) | 6.89
N=C(N)c1ccc(CNC(=O)CNC(=O)[C@@H](Cc2cccc(C(=N)N)c2)NS(=O)(=O)Cc2ccccc2)cc1 | 7.07
CC(C)(C)OC(=O)CN[C@H](CCc1ccccc1)C(=O)NCC(=O)NCc1ccc(C(=N)N)cc1 | 5.82

(P) N=C(N)c1ccc(CNC(=O)[C@H](CCC(=O)NCCCOCCOCCOCCCN)NC(=O)[C@@H](CC2CCCCC2)NS(=O)(=O)Cc2ccccc2)cc1
(Q) N=C(N)c1ccc(CNC(=O)[C@@H]2CCCN2C(=O)[C@@H](CO)NS(=O)(=O)Cc2ccc(C(=O)O)cc2)cc1
So which one has the bigger pKi here, P or Q ? Reply with the label of the item you choose.
P
(P: 7.82, Q: 6.62)

---

Field Ki: reported value for Prothrombin (Bos taurus); entries drawn from several documents.
value.kind: Ki (µM)

Examples with their reported Ki follow.
smiles.text | unit.spec | Ki
N=C(N)c1ccc(CNC(=O)[C@H](CCC(=O)O)NC(=O)[C@@H](CC2CCCCC2)NS(=O)(=O)Cc2ccccc2)cc1 | µM | 0.081
N=C(N)NCCC[C@@H](NS(=O)(=O)Cc1ccccc1)C(=O)NCC(=O)NCc1ccc(C(=N)N)cc1 | µM | 1.4
N=C(N)c1ccc(CNC(=O)[C@@H]2Cc3cccc(c3)CNC(=O)Cc3cccc(c3)CC(=O)NCc3cccc(c3)C[C@@H](NS(=O)(=O)Cc3ccccc3)C(=O)N2)cc1 | µM | 0.0268

(A) N=C(N)c1ccc(CNC(=O)[C@H](CO)NC(=O)[C@@H](CCc2ccccc2)NS(=O)(=O)Cc2ccccc2)cc1
(B) N=C(N)c1ccc(CNC(=O)[C@@H]2Cc3ccc(cc3)CNC(=O)CN3CCN(CC3)CC(=O)NCc3ccc(cc3)C[C@@H](NS(=O)(=O)Cc3ccccc3)C(=O)N2)cc1
Given the listed items, does A or B have the lesser reported Ki? Reply with the label of the item you choose.
A
(A: 0.55 µM, B: 2.12 µM)

(1) N=C(N)c1ccc(CNC(=O)CNC(=O)[C@@H](CCc2ccc(O)cc2)NS(=O)(=O)Cc2ccc([N+](=O)[O-])cc2)cc1
(2) N=C(N)c1ccc(CNC(=O)[C@H](Cc2ccccc2)NC(=O)[C@@H](CO)NS(=O)(=O)Cc2ccccc2)cc1
Given the listed items, does 1 or 2 have the lesser reported Ki? Reply with the label of the item you choose.
1
(1: 0.86 µM, 2: 1.6 µM)

(A) N=C(N)c1ccc(CNC(=O)CNC(=O)[C@@H](CCc2ccccc2)NCC(=O)O)cc1
(B) N=C(N)c1ccc(CNC(=O)[C@H](CO)NC(=O)[C@@H](CO)NS(=O)(=O)Cc2ccccc2)cc1
Given the listed items, does A or B have the lesser reported Ki? Reply with the label of the item you choose.
B
